test system: ATP; test: switch fluorescence ratio, 500 uM ATP over buffer (Cy3 cluster intensity, sum of 5 cycles each) (fold (ratio)); higher = stronger signal-on switching upon ATP binding; sequences stand for … in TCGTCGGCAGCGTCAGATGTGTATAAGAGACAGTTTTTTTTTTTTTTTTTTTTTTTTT…TC; conditions: aptamer strand: ATP DNA aptamer (quencher-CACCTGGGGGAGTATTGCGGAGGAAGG + anchor), 100 nM annealed; ATP concentration: 500 uM;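 note: ATP exposure 15 min at 22 °C before imaging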
QUANTITY: switch fluorescence ratio

Sample records with switch fluorescence ratio:
RESIDUE CODES	switch fluorescence ratio
GATCACGTTG	0.999
CTCTTGAGCC	1.01
TGGGCGATAT	1.95
AGAAGCAGG	1.21
TTAAAAAAGA	0.998
GGGTTGATCG	0.987
TGGTAATAGT	1.02
AGTGGGTTCA	0.984

Quick check: switch fluorescence ratio of ACAGTTAATA ?
1.06

Quick check: switch fluorescence ratio of GCATTTTACA ?
1

Quick check: switch fluorescence ratio of TTAACGCCTC ?
1.03

Quick check: switch fluorescence ratio of TAGGATACTT ?
0.977

Quick check: switch fluorescence ratio of GAGGAAGTCT ?
1.03

Quick check: switch fluorescence ratio of GAACTAAATG ?
1

Quick check: switch fluorescence ratio of TGTTACCAGC ?
1.01

Quick check: switch fluorescence ratio of TTTTAGGGTC ?
1.11

Quick check: switch fluorescence ratio of CTTAGCGGGA ?
1.02

Quick check: switch fluorescence ratio of TACGGGGCCA ?
0.992

Quick check: switch fluorescence ratio of GGGGGAACTT ?
0.977

Quick check: switch fluorescence ratio of AGCTGGTGGA ?
1.02

Quick check: switch fluorescence ratio of ATTGATGGGG ?
0.976

---

test system: ATP; assay: switch fluorescence ratio, 500 uM ATP over buffer (Cy3 cluster intensity, sum of 5 cycles each) (fold (ratio)); higher = stronger signal-on switching upon ATP binding; sequences stand for … in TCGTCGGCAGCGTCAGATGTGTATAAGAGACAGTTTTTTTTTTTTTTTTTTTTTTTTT…TC; settings: aptamer strand: ATP DNA aptamer (quencher-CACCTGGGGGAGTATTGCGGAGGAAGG + anchor), 100 nM annealed; ATP concentration: 500 uM;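 note: ATP exposure 15 min at 22 °C before imaging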
Classification field: y = switch fluorescence ratio at or over 1; n = switch fluorescence ratio under 1.

Illustrative cases are given below, each with its answer.
RESIDUE CODES	MEASURED ON	CAT
GAGGAAATTG	ATP	n
ATAATACGCC	ATP	y
TAGCTCGGCT	ATP	n
CCAGGCTTAA	ATP	y
TTTCGTTTAC	ATP	y

Textbook exercise: given the entry ATCGTTGGCT , state whether its switch fluorescence ratio is greater than or equal to 1.
y

Textbook exercise: given the entry CCCATGCGTT , state whether its switch fluorescence ratio is greater than or equal to 1.
y

Textbook exercise: given the entry AGAATGTAAT , state whether its switch fluorescence ratio is greater than or equal to 1.
n

Textbook exercise: given the entry CCGAATTCT , state whether its switch fluorescence ratio is greater than or equal to 1.
y

Textbook exercise: given the entry TATTCGCCTT , state whether its switch fluorescence ratio is greater than or equal to 1.
y

---

tested on: ATP; experiment: switch fluorescence ratio, 500 uM ATP over buffer (Cy3 cluster intensity, sum of 5 cycles each) (fold (ratio)); higher = stronger signal-on switching upon ATP binding; sequences stand for … in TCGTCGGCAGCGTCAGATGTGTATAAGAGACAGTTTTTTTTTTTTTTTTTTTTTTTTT…TC; conditions: aptamer strand: ATP DNA aptamer (quencher-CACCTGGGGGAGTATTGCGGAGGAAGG + anchor), 100 nM annealed; ATP concentration: 500 uM;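 note: ATP exposure 15 min at 22 °C before imaging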
Attribute: switch fluorescence ratio
// keep it numeric: no unit symbol after the value

Sample records with switch fluorescence ratio:
RESIDUE CODES	switch fluorescence ratio
GGCAGAATGA	1
GTGGGGTTTT	0.983
TAATTGAGAA	0.986
TGCATCATTG	0.988
TTACAGGGTA	0.981
CCTTATTTCT	1
ATTAAACGAG	1.01
ATCGGTCTTG	1
ATTTATGGGG	1
GCTGCATGTA	1.02

Quick check: switch fluorescence ratio of CGGGGAGGAA ?
1.01

Quick check: switch fluorescence ratio of TTATATATGC ?
0.986

Quick check: switch fluorescence ratio of CTTGAAACGT ?
0.992

Quick check: switch fluorescence ratio of GATAATTCTG ?
1

Quick check: switch fluorescence ratio of GAGAGTAATT ?
1.01

Quick check: switch fluorescence ratio of GTCAGAGGCA ?
0.991

Quick check: switch fluorescence ratio of CCTTGTTTTT ?
1.01

Quick check: switch fluorescence ratio of TAAAGGGGGG ?
1.01

Quick check: switch fluorescence ratio of AGGAGGGGG ?
0.989

Quick check: switch fluorescence ratio of GGAATAGCGG ?
0.993

---

tested on: ATP; experiment: switch fluorescence ratio, 500 uM ATP over buffer (Cy3 cluster intensity, sum of 5 cycles each) (fold (ratio)); higher = stronger signal-on switching upon ATP binding; sequences stand for … in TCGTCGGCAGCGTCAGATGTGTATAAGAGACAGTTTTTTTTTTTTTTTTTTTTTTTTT…TC; settings: aptamer strand: ATP DNA aptamer (quencher-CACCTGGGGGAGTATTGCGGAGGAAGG + anchor), 100 nM annealed; ATP concentration: 500 uM;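 note: ATP exposure 15 min at 22 °C before imaging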
QUANTITY: switch fluorescence ratio
// keep it numeric: no unit symbol after the value

Sample records with switch fluorescence ratio:
RESIDUE CODES	MEASURED ON	RECORDED RESULT
TTGGGGTCCT	ATP	0.984
TCAGGGGACG	ATP	1
CCGTTGTAAG	ATP	1.02
GTAATGCTTG	ATP	1.01

Quick check: switch fluorescence ratio of TAATGGGTTA ?
1

Quick check: switch fluorescence ratio of TAGCGGGGCG ?
0.988

Quick check: switch fluorescence ratio of TAAGATTTGT ?
0.99

Quick check: switch fluorescence ratio of CAGGGGGTCC ?
1.01

Quick check: switch fluorescence ratio of GGGCGAGTAT ?
1.02

---

system: ATP; assay: switch fluorescence ratio, 500 uM ATP over buffer (Cy3 cluster intensity, sum of 5 cycles each) (fold (ratio)); higher = stronger signal-on switching upon ATP binding; sequences stand for … in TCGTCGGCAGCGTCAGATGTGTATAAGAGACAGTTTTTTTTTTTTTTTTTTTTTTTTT…TC; details: aptamer strand: ATP DNA aptamer (quencher-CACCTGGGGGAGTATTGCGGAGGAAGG + anchor), 100 nM annealed; ATP concentration: 500 uM;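 note: ATP exposure 15 min at 22 °C before imaging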
Attribute: switch fluorescence ratio

RESIDUE CODES	switch fluorescence ratio
AATCTGGGGG	1.01

Quick check: switch fluorescence ratio of GGTGGAGGGG ?
1

Quick check: switch fluorescence ratio of ATGGCTTTTG ?
1.02

Quick check: switch fluorescence ratio of AATGCGTTCG ?
0.992

Quick check: switch fluorescence ratio of ATGGGTGGGG ?
1.01

Quick check: switch fluorescence ratio of ATGTTTGGGT ?
1.01

Quick check: switch fluorescence ratio of CTGGGGGTAT ?
1

Quick check: switch fluorescence ratio of TTTAGAGAGA ?
0.975

Quick check: switch fluorescence ratio of TTTATTAATT ?
1

---

tested on: ATP; assay: switch fluorescence ratio, 500 uM ATP over buffer (Cy3 cluster intensity, sum of 5 cycles each) (fold (ratio)); higher = stronger signal-on switching upon ATP binding; sequences stand for … in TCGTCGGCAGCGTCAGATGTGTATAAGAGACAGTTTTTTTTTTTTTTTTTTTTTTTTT…TC; settings: aptamer strand: ATP DNA aptamer (quencher-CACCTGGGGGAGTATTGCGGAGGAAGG + anchor), 100 nM annealed; ATP concentration: 500 uM;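 note: ATP exposure 15 min at 22 °C before imaging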
Attribute: switch fluorescence ratio
// keep it numeric: no unit symbol after the value

Sample records with switch fluorescence ratio:
RESIDUE CODES	QUANTITY	RECORDED RESULT
TCGTGGACGC	switch fluorescence ratio	0.995
GCGTAACCGT	switch fluorescence ratio	0.99
AATCTAGTGT	switch fluorescence ratio	0.996
TCAAGATAGG	switch fluorescence ratio	1.01
GTTTAGTAAG	switch fluorescence ratio	1
CTCGGAGGGA	switch fluorescence ratio	0.985

API: value(readout=switch fluorescence ratio, system=ATP) for record TTACAGGGGA;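 note: ATP exposure 15 min at 22 °C before imaging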
1.01

API: value(readout=switch fluorescence ratio, system=ATP) for record TGGGAGATAT;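 note: ATP exposure 15 min at 22 °C before imaging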
1

API: value(readout=switch fluorescence ratio, system=ATP) for record GAAGGGGCTG;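 note: ATP exposure 15 min at 22 °C before imaging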
1.01

API: value(readout=switch fluorescence ratio, system=ATP) for record GGGTAGGGGC;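 note: ATP exposure 15 min at 22 °C before imaging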
1.02

API: value(readout=switch fluorescence ratio, system=ATP) for record AGGGGTAAGA;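 note: ATP exposure 15 min at 22 °C before imaging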
1.01

API: value(readout=switch fluorescence ratio, system=ATP) for record TAAGATTTTA;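 note: ATP exposure 15 min at 22 °C before imaging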
1

API: value(readout=switch fluorescence ratio, system=ATP) for record GAATGTGATA;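 note: ATP exposure 15 min at 22 °C before imaging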
0.984

API: value(readout=switch fluorescence ratio, system=ATP) for record TAGCGCGGGA;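 note: ATP exposure 15 min at 22 °C before imaging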
1

API: value(readout=switch fluorescence ratio, system=ATP) for record GCTTTACCAG;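 note: ATP exposure 15 min at 22 °C before imaging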
0.989

Source of measurements: the supplement of paper PMC10126150
